Every entry's value here was drawn from the supplement of paper PMC9170038.

# Test system: MS2 coat protein
# EXPERIMENT NOTES: apparent KD of MS2 coat protein, switch OFF state (with FMN for OFF switches, without FMN for ON switches); designed switch direction (-1 OFF switch, 1 ON switch): -1; higher = weaker reporter binding
# MEASUREMENT PARAMETERS: FMN input: 0 or 200 uM; Eterna round: R93 (includes R88 designs)
PROPERTY MEASURED: apparent KD of MS2 coat protein
Could you give the number and then its unit, please?

For ACAGUUACAGGAUAUACAAGGAAAAAUAAAAAUAAAAUUCAACAUGAGGAUCACCCAUGUAGAAGGGUAACUGA [Ex2 Design 200: Random 15] , what is its reported apparent KD of MS2 coat protein?
32.1 nM

For AGGAAACAUGAGGAUCACCCAUGUGAGGAUAUUUGAAAGAAAAGAAAAGAAAGAAGAAGAAGAAGGCACAAGAA [Merneith] , what is its reported apparent KD of MS2 coat protein?
20.5 nM

For AACAGGACAGGAUAUACAUGAGGAUCACCCAUGUAGGAAACAAGCAGAGUACCAAACAGUAGAAGGGUCAUGGA [Ruby 29] , what is its reported apparent KD of MS2 coat protein?
50.3 nM

For AUAGGCCUAGGAUAUACAUGAGGAUCACCCAUGUAAAUAAAUCGAUCAAAAUAAACGUGUAGAAGGAGGAAUAA [JR_Exc003_Sub205] , what is its reported apparent KD of MS2 coat protein?
38.3 nM

For CGCAAGUCAGGAUAUUCGACAGGUAAAUCAGUGGAUCAGAAGGAGAAGGGACAUGAGGAUCACCCAUGUAUGUA [JR_Exc004_Sub407] , what is its reported apparent KD of MS2 coat protein?
23.1 nM

For CUCAAGUAAGGAUAUGUAAGAAAAGAAGAGAAAGAAAAGAAACAGAAGGUACAUGAGGAUCACCCAUGUAAGAA [EteRNA is fun!] , what is its reported apparent KD of MS2 coat protein?
28.2 nM

For AACAGUACAGGAUAUACAUGAGGAUCACCCAUGUCACAGAAAUAAAACAAAAAUAAAAGUAGAAGGGUACUGGA [Ruby 41] , what is its reported apparent KD of MS2 coat protein?
36.7 nM

For AAGAAACAUGAGGAUCACCCAUGUCAGGAUAUGAAAAAGAAAAGAAAAGAAAGAAGAAUCAGAAGGGACAAAGG [Neferkauhor Khuwihapi] , what is its reported apparent KD of MS2 coat protein?
27.4 nM

For AGAAAGGUAGGAUAUACGAAAAAAAAGGGUAGAAAAAAAACACAUGAGGAUCACCCAUGUAGAAGGACCAAAGA [Mat - Exclusion 2 - Tesla mod - D31] , what is its reported apparent KD of MS2 coat protein?
47.5 nM

For GAAAAGUGAGGAUAUACAUGAGGAUCACCCAUGUGUAUAAAAAAAUACACAAAAGAAAGUAGAAGGCACUAAAG [Mat - Exclusion 3 - Mayanna mod - D110] , what is its reported apparent KD of MS2 coat protein?
48.7 nM

For AUAAAUCGAGGAUAUACAUGAGGAUCACCCAUGUAAAUAAAUAAAUAAUCCUCAGGAAGUAGAAGGCGAAAUAA [JR_Exc003_Sub019] , what is its reported apparent KD of MS2 coat protein?
27.2 nM

For AAAGGAUCAGGAUAUGUGUGGAAAAAGUGUGUCCCAAAAAAACAUGAGGAUCACCCAUGUAGAAGGGAUCCAAA [Mod 5 of Normal (20/19) by Nando, Round 1] , what is its reported apparent KD of MS2 coat protein?
97.8 nM

For AAGAAGCUAGGAUAUACAUGAGGAUCACCCAUGUAAAAGAAAGAGGGAAAAGAGAAAAGUAGAAGGAGCAAGAA [Cleopatra I] , what is its reported apparent KD of MS2 coat protein?
25.4 nM

For AAAAAACAUGAGGAUCACCCAUGUCAGGAUAUACAAAAGAAAAGAAAAAGAAAAGAAAGUAGAAGGGACAAAAA [mod1] , what is its reported apparent KD of MS2 coat protein?
24.6 nM

For AAGGGACAUGAGGAUCACCCAUGUCAGGAUAUGAUGCGAAUAAAGAAAGAAUAAAGCAUCAGAAGGGACGCCAA [Mat - Exclusion 1 - Eli mod - D65] , what is its reported apparent KD of MS2 coat protein?
25.7 nM

For ACCUGACAUGAGGAUCACCCAUGUCAGGAUAUGCAUCUUAGGAAAAAAAAACUAAGAUGCAGAAGGGACAUGGG [Design 2: Super Stable 2] , what is its reported apparent KD of MS2 coat protein?
27.5 nM

For AACAGUACAGGAUAUACAUGAGGAUCACCCAUGUCACAAUUAAGCAGCGUAACACAAAGUAGAAGGGUAAUGGA [Ruby 17] , what is its reported apparent KD of MS2 coat protein?
31.1 nM

For GAGGAGUCAGGAUAUCGGGAAAGGUUGAGGAAGAGAAGAAGCGAGAAGGGACAUGAGGAUCACCCAUGUAGAAG [Default title] , what is its reported apparent KD of MS2 coat protein?
40.3 nM

For AAGAUGUCAGGAUAUACAUAAAUAAAAAAUUAUGUUAAAACACAUGAGGAUCACCCAUGUAGAAGGGACAACAA [AJ 6] , what is its reported apparent KD of MS2 coat protein?
20.7 nM

For AGAAAGUCAGGAUAUGUGGAAAAAAUAAAAAAAAUAAAAACACAGAAGGGACAUGAGGAUCACCCAUGUUAAGA [Mat - Exclusion 4 - Mayanna - D139] , what is its reported apparent KD of MS2 coat protein?
30.3 nM

For AACAUGUUAGGAUAUAGAAGAAAAGAAAAGAAAGAAAAGAACUAGAAGGAACAUGAGGAUCACCCAUGUAAGAA [EteRNA is fun!] , what is its reported apparent KD of MS2 coat protein?
26.1 nM

For CUCAAGUGAGGAUAUCAGUAGUAAAAAAAUAAAAUUACUACUGAGAAGGCACAUGAGGAUCACCCAUGUGUCUU [EX4 333: Super Stable 33] , what is its reported apparent KD of MS2 coat protein?
11.1 nM

For AACAGUACAGGAUAUACAUGAGGAUCACCCAUGUAAAAAAAGGGUGGCGUACCACGAAGUAGAAGGGUACUGGA [Moding Maslow revisited (73) 11] , what is its reported apparent KD of MS2 coat protein?
81.3 nM

For AGAAAGGCAGGAUAUACAUGAGGAUCACCCAUGUUAAGAAAGACGGAAACGUCAAGAAGUAGAAGGGCCAAGAA [Shaken, but not stirred] , what is its reported apparent KD of MS2 coat protein?
19.7 nM

For AAUAAGUGAGGAUAUGGAAAUAAUAAAUAAAAUAAAAUAAACCAGAAGGCACAUGAGGAUCACCCAUGUAAAUA [JR_Exc004_Sub002] , what is its reported apparent KD of MS2 coat protein?
22 nM
